- study.system: PI3KC3 (hVPS34) kinase (Homo sapiens (Human))
- Sequence (Q8NEB9 whole entry): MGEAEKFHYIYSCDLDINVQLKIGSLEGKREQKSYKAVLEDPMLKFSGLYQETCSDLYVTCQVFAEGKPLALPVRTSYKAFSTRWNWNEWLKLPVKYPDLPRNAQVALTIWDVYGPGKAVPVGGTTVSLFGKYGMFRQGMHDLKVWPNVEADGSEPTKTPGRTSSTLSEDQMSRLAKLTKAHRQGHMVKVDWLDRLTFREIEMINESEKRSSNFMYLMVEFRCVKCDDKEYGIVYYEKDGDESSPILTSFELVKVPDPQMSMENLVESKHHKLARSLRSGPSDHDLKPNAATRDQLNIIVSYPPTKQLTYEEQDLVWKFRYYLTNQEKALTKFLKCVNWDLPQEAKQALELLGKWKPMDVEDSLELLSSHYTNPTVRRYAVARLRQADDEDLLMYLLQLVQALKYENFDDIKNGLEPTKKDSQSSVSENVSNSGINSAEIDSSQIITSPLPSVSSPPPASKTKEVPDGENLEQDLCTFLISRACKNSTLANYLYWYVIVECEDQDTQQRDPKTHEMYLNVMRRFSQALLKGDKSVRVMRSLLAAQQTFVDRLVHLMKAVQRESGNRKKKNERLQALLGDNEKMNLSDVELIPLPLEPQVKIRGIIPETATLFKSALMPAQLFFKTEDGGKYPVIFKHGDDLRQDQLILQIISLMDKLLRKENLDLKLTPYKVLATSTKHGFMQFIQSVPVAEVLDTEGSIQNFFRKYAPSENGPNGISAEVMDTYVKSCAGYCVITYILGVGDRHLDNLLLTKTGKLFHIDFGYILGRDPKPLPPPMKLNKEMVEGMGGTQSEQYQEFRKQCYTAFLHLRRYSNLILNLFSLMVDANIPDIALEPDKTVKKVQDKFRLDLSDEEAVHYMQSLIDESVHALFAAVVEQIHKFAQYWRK
observation.type: pIC50
One number for each entry, as −log10 of the molar value.

Asked: What does the record list as pIC50 for Nc1ncc(-c2cc(N3CCOCC3)cc(S(=O)(=O)[C@@H]3CCOC3)c2)s1 ?
Given back: 5.42

----------
The following are reported IC50 results, target or system PI3Kα (Homo sapiens (Human), UniProt P42336).
One number for each entry, in nM.

>  <chem.smiles>
Nc1nc(C(F)(F)F)c(-c2cc(N3CCOCC3)cc(S(=O)(=O)[C@@H]3CCOC3)c2)s1

>  <measurement.units>
nM

>  <IC50>
740

$$$$
>  <chem.smiles>
Cc1nc(N)sc1-c1cc(S(=O)(=O)c2ccccc2)cc(N2CCOCC2)n1

>  <measurement.units>
nM

>  <IC50>
2300

$$$$

Asked: Query IC50 on PI3Kα (Homo sapiens (Human), UniProt P42336) for Nc1nsc(-c2cc(N3CCOCC3)cc(S(=O)(=O)c3ccccc3)c2)n1
Sequence (P42336 whole entry): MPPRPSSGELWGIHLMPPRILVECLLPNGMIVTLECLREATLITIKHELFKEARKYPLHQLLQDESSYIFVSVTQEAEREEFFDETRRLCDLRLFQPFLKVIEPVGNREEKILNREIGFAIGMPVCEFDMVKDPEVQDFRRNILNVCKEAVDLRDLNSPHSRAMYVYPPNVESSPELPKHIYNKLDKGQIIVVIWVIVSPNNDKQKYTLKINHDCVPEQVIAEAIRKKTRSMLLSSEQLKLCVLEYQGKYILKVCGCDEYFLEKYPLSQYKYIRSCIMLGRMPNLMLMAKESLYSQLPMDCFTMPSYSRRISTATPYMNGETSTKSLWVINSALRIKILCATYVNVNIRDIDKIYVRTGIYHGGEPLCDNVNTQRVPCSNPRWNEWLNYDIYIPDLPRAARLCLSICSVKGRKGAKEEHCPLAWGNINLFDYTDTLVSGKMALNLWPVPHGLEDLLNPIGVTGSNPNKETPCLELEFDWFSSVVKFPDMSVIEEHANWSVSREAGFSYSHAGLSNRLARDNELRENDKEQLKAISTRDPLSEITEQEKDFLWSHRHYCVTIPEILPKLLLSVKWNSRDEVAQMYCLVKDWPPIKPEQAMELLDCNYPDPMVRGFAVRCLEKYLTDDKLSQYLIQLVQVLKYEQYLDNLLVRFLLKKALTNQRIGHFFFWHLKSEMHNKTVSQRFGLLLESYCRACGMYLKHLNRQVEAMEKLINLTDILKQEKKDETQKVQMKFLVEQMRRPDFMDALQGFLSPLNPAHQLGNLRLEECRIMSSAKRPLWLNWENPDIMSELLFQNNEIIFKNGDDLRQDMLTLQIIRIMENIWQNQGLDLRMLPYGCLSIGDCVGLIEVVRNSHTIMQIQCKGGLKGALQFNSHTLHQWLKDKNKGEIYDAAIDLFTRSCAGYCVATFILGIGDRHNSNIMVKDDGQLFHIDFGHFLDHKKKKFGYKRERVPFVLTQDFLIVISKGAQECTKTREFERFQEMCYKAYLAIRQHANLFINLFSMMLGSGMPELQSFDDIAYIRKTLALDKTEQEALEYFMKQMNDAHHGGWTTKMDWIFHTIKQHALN
Sequence (P27986 whole entry partner): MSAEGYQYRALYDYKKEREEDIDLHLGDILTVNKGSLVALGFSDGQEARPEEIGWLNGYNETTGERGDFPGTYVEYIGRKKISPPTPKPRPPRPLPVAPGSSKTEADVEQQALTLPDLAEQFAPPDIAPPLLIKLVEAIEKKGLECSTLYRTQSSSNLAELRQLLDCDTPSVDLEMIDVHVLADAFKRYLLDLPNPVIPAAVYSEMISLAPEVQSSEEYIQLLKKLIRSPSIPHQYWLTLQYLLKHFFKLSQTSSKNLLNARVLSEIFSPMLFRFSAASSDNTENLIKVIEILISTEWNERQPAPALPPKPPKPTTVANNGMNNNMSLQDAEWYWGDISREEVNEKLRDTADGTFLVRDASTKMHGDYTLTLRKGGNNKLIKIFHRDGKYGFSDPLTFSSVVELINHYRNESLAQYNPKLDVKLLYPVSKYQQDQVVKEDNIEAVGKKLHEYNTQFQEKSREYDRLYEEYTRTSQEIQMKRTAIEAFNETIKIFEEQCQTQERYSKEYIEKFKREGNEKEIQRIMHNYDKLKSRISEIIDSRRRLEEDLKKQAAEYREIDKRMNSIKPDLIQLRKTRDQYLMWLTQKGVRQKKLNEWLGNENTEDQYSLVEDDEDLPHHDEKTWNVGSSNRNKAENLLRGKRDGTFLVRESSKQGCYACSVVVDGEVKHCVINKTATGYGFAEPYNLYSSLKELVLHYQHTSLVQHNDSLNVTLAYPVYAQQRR
Given back: 11200
